# target-of-assay: Beta-1 adrenergic receptor (Homo sapiens)
# Sequence (P08588 whole entry): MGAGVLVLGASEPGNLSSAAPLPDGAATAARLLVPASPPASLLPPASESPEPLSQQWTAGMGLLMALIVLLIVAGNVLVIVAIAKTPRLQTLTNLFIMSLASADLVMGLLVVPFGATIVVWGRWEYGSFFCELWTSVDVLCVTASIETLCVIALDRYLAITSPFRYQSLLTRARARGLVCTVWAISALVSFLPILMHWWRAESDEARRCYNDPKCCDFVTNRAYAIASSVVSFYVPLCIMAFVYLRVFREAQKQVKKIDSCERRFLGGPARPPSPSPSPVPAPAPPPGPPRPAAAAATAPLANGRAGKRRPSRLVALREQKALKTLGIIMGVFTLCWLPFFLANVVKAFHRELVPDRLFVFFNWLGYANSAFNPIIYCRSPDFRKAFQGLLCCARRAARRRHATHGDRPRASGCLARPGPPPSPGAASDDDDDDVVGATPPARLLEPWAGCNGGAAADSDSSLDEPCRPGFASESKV
# experiment-description: Binding affinity for cloned human Beta-1 adrenergic receptor expressed in CHO cells, tested in the presence of I-iodocyanopindolol.
assay-readout: IC50 (µM)

Reference set, count: 3
O=S(=O)(Nc1ccc(CCNC[C@H](O)c2cccnc2)cc1)c1ccc(-n2ncc(Cc3ccc(C(F)(F)F)cc3)n2)cc1	20
COc1ccc(-c2cnn(-c3ccc(S(=O)(=O)Nc4ccc(CCNC[C@H](O)c5cccnc5)cc4)cc3)n2)cc1F	5.6
O=S(=O)(Nc1ccc(CCNC[C@H](O)c2cccnc2)cc1)c1ccc(-n2ncc(-c3ccc(C(F)(F)F)cc3)n2)cc1	21

1 = O=S(=O)(Nc1ccc(CCNC[C@H](O)c2cccnc2)cc1)c1ccc(-n2ncc(COc3ccc(F)c(F)c3)n2)cc1
2 = O=S(=O)(Nc1ccc(CCNC[C@H](O)c2cccnc2)cc1)c1ccc(-n2ncc(-c3ccc(F)c(F)c3)n2)cc1
Please indicate which entry, 1 or 2 , has the lower recorded IC50 value. Indicate which entry you chose by stating its label.
1
(1: 0.93 µM, 2: 2.6 µM)

A = O=S(=O)(Nc1ccc(CCNC[C@H](O)c2cccnc2)cc1)c1ccc(-n2ncc(-c3ccc(F)cc3)n2)cc1
B = O=S(=O)(Nc1ccc(CCNC[C@H](O)c2cccnc2)cc1)c1ccc(-n2ncc(COc3ccc(C(F)(F)F)cc3)n2)cc1
Please indicate which entry, A or B , has the lower recorded IC50 value. Indicate which entry you chose by stating its label.
B
